- assayed.target: PU.1 (human, UniProt P17947 1-270)
- experimental.protocol: MST; MST: 20 mM Tris-HCl pH 7.6, 1.5 mM MgCl2, 0.5 mM EGTA, 10% glycerol, 300 mM KCl, 10 mM DTT, 25 C; 50 nM Cy3-dsDNA, PU.1 1:1 dilutions from 23 uM
- reported.conditions: protein: recombinant; tags: N-terminal His-tag; label: Cy3 on upper strand
property.label: pKd
The meaning of pKd here: minus log10 of the concentration in molar units.

pKd for PU.1 motif oligo 6 (dsDNA) DNA 1: ACGTGACTTCCTCTTTACGT DNA 2: ACGTAAAGAGGAAGTCACGT is 6.72

Record summary for PU.1 motif oligo 2 (dsDNA) DNA 1: ACGTCACTTCCTCATTACGT DNA 2: ACGTAATGAGGAAGTGACGT : reported pKd = 6.57

Form field pKd, entry PU.1 motif oligo 38 (dsDNA) DNA 1: ACGTCGCTTCCCCTTCACGT DNA 2: ACGTGAAGGGGAAGCGACGT : 6.05
